Test system: CEM cells HIV-1 protection, formazan growth assay
Run description: NCI AIDS Antiviral Assay
Recorded conditions: measured here: growth of uninfected CEM cells
pIC50: −log10 of the molar value.
# Lookup of reported pIC50 keyed by entry
Endpoint: pIC50

molecule="COc1ccc(/C=C/C(=O)NCC(NC(=O)/C=C/c2ccc(OC)c(OC)c2)C(=O)O)cc1OC (centres undefined)" measured="< 3.70"
molecule="CC1=CCC2CC1C(C(=O)c1c[nH]c3ccccc13)=NC2(C)C (centres undefined)" measured="< 4.09"
molecule="CC(C)[C@@H]1ON1C(C)c1ccccc1 (some centres undefined)" measured="< 3.70"
molecule=O=C(Nc1cccc(C(=O)NCCCO)c1)/C(=C/c1ccccc1)NC(=O)c1ccccc1 measured="< 3.70"
molecule=CC(=O)Nc1ccc(C2=N/C(=C\c3ccc(Cl)cc3)C(=O)O2)cc1 measured="< 4.96"
molecule="COc1cc2c(c(OC)c1OC)C(=O)C(Br)C2NC(=O)CCCCl (centres undefined)" measured="< 3.70"
molecule="C=C1C=CN(C(C)=O)C(OC(C)=O)C1SC(C)(C)C (centres undefined)" measured=4.24
molecule=COc1c(C)c(C/C=C(\C)CCCCO)c(OC)c(OC)c1OC measured=4.58
molecule=COc1ccccc1NC(=O)/C(=C\N1CCNC1=S)C(C)=O measured="< 3.70"
molecule="CN1NC(c2ccccc2)=C(C#N)C(=O)CC1c1cccs1 (centres undefined)" measured="< 3.70"
molecule=O=C(O)/C=C/C(=O)Nc1ncn[nH]1 measured=2.88
molecule=Cc1ccc(NC(=O)c2cc(S(=O)(=O)n3cc[nH]c3=O)c(S)cc2Cl)cc1 measured="< 3.70"
molecule="Cc1ccc(-n2cc(-c3ccc(Cl)cc3)c3c2N=CN2NC(c4cccs4)=NC32)cc1 (centres undefined)" measured=4.37
molecule=CC1=N/C(=C\c2ccc(-c3ccccc3)cc2)C(=O)O1 measured="< 4.70"

----------
# Lookup of reported IC50 keyed by entry
Test system: CEM cells HIV-1 protection, formazan growth assay
Run description: NCI AIDS Antiviral Assay
Recorded conditions: measured here: growth of uninfected CEM cells
Endpoint: IC50

compound="N#CC(C(=O)/C(=N/NC(=O)c1ccccc1O)C(C#N)c1ccc(Br)cc1)c1ccc(Br)cc1 (stereo not given)" measured="> 23.4 µM"
compound="CC1Cn2c(nc3ccccc32)NC1=O (stereo not given)" measured="> 200 µM"
compound=Cn1c(=O)n2c(=O)n(C)c(=O)n2c1=O measured="> 200 µM"
compound="CCOC(=O)C1(C(C)=O)OC(=O)c2cnccc21 (stereo not given)" measured="> 200 µM"
compound=O=C(c1ccccc1)n1c2ccc(Br)cc2c2nc3ccccc3nc21 measured="> 50.1 µM"

----------
System: CEM cells HIV-1 protection, formazan growth assay
Run description: NCI AIDS Antiviral Assay
Recorded conditions: measured here: growth of uninfected CEM cells
Endpoint: IC50

compound=O=c1[nH]nc(Cc2ccccc2)n1-n1cnnc1 measured="> 200 µM"
compound=COc1ccc2c3ccc4c(c3n(C)c2c1)C(=O)c1ccccc1C4=O measured="> 1.51 µM"
compound=CC(C)(C)N=C(N)NC#N measured="> 200 µM"
compound=O=[N+]([O-])c1c(C=Nc2ccccc2)oc(-c2ccc3c(c2)OCO3)c1-c1ccc2c(c1)OCO2 measured="> 49 µM"
compound=O=c1[nH]c(=O)c2c3n(cc2[nH]1)CCCCC3 measured="> 200 µM"
compound=Cc1ccc(Nc2nc(N)[nH]c(=O)c2N=O)cc1 measured="14.8 µM"
compound=N/N=c1\c2ccccc2c2cc3c(cc12)/c(=N/N)c1ccccc13 measured="> 17 µM"
compound=O=C(c1ccccc1)c1cc2c([nH]c1=O)CCCCCC2 measured="> 200 µM"
compound=CNCC(=O)c1ccc(O)c(O)c1 measured="> 200 µM"
compound=COc1c(C)cc2c(C(C)C)c(O)c(O)c(C=O)c2c1O measured="14.8 µM"
compound=COc1cccc2c1CCc1sc(CN3CCN(C)CC3)nc1-2 measured="30.2 µM"
compound=CNC(=O)OCCOC(=O)c1ccc(OC(=O)NC)cc1 measured="70.8 µM"
compound="Cc1cn(C(C)OCCN(OC(=O)Oc2ccccc2)C(=O)Oc2ccccc2)c(=O)[nH]c1=O (stereo not drawn)" measured="> 200 µM"
